# Tested On: C-C chemokine receptor type 2 (Homo sapiens, UniProt P41597)
# Sequence (P41597 whole entry): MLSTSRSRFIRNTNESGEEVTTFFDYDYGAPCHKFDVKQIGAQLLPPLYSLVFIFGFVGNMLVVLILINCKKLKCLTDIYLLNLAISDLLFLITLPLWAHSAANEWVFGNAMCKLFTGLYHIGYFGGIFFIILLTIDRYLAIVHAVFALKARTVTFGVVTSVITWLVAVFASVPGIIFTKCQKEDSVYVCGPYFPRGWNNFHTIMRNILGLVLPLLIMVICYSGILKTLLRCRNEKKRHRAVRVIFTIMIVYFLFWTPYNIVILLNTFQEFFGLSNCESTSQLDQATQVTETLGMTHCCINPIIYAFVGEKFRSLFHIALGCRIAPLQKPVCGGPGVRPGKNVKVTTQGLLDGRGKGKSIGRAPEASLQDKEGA
# Assay Protocol: Antagonist activity at human CCR2 receptor expressed in human THP-1 cells assessed as inhibition of MCP1-induced Ca2+ flux by FLIPR analysis
# Format: functional, cell-based
Property Name: IC50 (nM)

Recorded IC50, per entry:
Mol Smiles | IC50 / nM
CC(C)N1CCN[C@@H](CN2CCN(C(=O)Nc3ccc(Cl)c(Cl)c3)CC2)C1 | 32
O=C(Nc1ccc(Cl)c(C(F)(F)F)c1)N1CCN(C[C@@H]2CCCN(C3CC3)C2)CC1 | 421
N#Cc1ccc(NC(=O)N2CCN(C[C@@H]3CCCN(C4CC4)C3)CC2)cc1 | 4360
O=C(Nc1ccc(Cl)c(Cl)c1)N1CCN(C[C@@H]2CCCN(Cc3ccccc3)C2)CC1 | 244
CCN1CCC[C@@H](C(=O)N2CCN(C(=O)Nc3ccc(Cl)c(Cl)c3)CC2)C1 | 588

(I) O=C(Nc1ccc(C(F)(F)F)cc1)N1CCN(C[C@@H]2CCCN(C3CC3)C2)CC1
(II) O=C(Nc1ccc(Br)cc1)N1CCN(C[C@@H]2CCCN(C3CC3)C2)CC1
// compare measured IC50 between I and II ; output the lower one Answer by quoting the chosen item's label. II

###

# Assay Protocol: Intrinsic clearance in human hepatocytes assessed per 10^6 cells
# Assay type: ADME, cell-based, Hepatocyte
# Details: read-out: CLH
Property Name: hepatocyte CLint

In one line, give reported hepatocyte CLint of the entry `CC(C)N1CCN[C@@H](C(=O)N2CCN(C(=O)Nc3ccc(Cl)c(Cl)c3)CC2)C1` . < 2 µL/min/1e6 cells

###

# Tested On: UniProt:Q12809
# Sequence (Q12809 whole entry): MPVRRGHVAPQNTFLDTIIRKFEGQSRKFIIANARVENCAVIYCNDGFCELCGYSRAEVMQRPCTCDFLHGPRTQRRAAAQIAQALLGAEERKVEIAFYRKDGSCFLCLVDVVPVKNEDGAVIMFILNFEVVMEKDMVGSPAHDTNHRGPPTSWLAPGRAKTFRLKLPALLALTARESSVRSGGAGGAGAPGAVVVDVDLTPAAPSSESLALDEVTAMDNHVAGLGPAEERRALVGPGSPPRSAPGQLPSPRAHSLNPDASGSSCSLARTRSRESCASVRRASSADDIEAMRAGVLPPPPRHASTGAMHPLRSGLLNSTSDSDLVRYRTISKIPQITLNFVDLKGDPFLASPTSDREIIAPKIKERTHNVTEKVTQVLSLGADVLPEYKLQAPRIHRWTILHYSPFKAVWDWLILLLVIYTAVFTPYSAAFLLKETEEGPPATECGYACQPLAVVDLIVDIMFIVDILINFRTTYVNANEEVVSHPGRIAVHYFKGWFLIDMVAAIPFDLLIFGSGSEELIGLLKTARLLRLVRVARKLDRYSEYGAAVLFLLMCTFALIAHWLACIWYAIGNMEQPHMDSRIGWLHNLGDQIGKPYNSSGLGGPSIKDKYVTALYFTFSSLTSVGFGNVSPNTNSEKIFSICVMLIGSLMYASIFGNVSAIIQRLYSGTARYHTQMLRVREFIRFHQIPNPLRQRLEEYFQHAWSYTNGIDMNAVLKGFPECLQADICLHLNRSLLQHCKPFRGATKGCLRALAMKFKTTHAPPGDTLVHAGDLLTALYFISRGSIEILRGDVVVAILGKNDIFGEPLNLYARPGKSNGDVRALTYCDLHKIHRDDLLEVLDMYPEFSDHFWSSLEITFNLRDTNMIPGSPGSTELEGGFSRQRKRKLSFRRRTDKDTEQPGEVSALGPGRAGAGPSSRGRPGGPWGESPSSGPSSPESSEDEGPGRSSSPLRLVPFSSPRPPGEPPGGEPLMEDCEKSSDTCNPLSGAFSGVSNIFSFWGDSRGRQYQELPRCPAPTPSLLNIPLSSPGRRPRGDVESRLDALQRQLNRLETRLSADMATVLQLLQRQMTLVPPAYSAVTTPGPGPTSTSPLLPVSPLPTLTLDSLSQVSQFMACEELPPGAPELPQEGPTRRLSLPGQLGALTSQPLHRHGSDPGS
This section presents compounds with their documented IC50 values.
A number alone suffices; assume µM.

GET IC50 where system = UniProt:Q12809 and item = `O=C(Nc1ccc(F)c(Cl)c1)N1CCN(C[C@@H]2CCCN(C3CC3)C2)CC1` 14

GET IC50 where system = UniProt:Q12809 and item = CCN1CCNC(CN2CCN(C(=O)Nc3ccc(Cl)c(Cl)c3)CC2)C1 (racemic) 8.9

###

# Assay Protocol: Half life in rat at 4 umol/kg, iv
# Format: ADME, organism-based
# Details: in vivo
Property Name: half-life (h)
A number alone suffices; assume h.

In one line, give reported half-life of the entry `CC(C)N1CCN[C@@H](C(=O)N2CCN(C(=O)Nc3ccc(Cl)c(Cl)c3)CC2)C1` . 3

###

# Assay Protocol: Dissociation constant, pKa of the compound
# Assay type: physicochemical
Property Name: pKa

Mol Smiles | pKa
CC(C)N1CCN[C@@H](C(=O)N2CCN(C(=O)Nc3ccc(Cl)c(Cl)c3)CC2)C1 | 7.8
CC(C)N1CCC[C@@H](CN2CCN(C(=O)Nc3ccc(Cl)c(Cl)c3)CC2)C1 | 10

###

# Tested On: C-C chemokine receptor type 2 (Homo sapiens)
# Assay Protocol: Displacement of 125I-MCP1 from human CCR2 receptor expressed in human THP-1 cell membrane by SPA assay
# Format: cell membranes
pIC50: −log10 of the molar value.
Property Name: pIC50

Recorded pIC50, per entry:
Compound | Tested On | pIC50
Cc1ccc(NC(=O)N2CCN(C[C@@H]3CCCN(C4CC4)C3)CC2)cc1Cl | C-C chemokine receptor type 2 (Homo sapiens) | 7.57
CN1CCCC(CN2CCN(C(=O)Nc3ccc(Cl)c(Cl)c3)CC2)C1 (stereo not drawn) | C-C chemokine receptor type 2 (Homo sapiens) | 6.77
O=C(Nc1ccc(Cl)c(Cl)c1)N1CCN(C[C@@H]2CCCN(CCc3ccccc3)C2)CC1 | C-C chemokine receptor type 2 (Homo sapiens) | 8.30
CCN1CCO[C@@H](CN2CCN(C(=O)Nc3ccc(Cl)c(Cl)c3)CC2)C1 | C-C chemokine receptor type 2 (Homo sapiens) | 7.19
O=C(Nc1ccc(Cl)c(Cl)c1)N1CCN(C[C@H]2CN(C3CC3)CCO2)CC1 | C-C chemokine receptor type 2 (Homo sapiens) | 6.57

(P) N#Cc1cccc(NC(=O)N2CCN(C[C@@H]3CCCN(C4CC4)C3)CC2)c1
(Q) O=C(Nc1ccc(Cl)c(C(F)(F)F)c1)N1CCN(C[C@@H]2CCCN(C3CC3)C2)CC1
// compare measured pIC50 between P and Q ; output the lower one Answer by quoting the chosen item's label. P

(a) CCN1CCCC(CN2CCN(C(=O)Nc3ccc(Cl)c(Cl)c3)CC2)C1 (racemic)
(b) CCN1CCOC(C(=O)N2CCN(C(=O)Nc3ccc(Cl)c(Cl)c3)CC2)C1 (racemic)
(c) CC(C)N1CCN[C@@H](CN2CCN(C(=O)Nc3ccc(Cl)c(Cl)c3)CC2)C1
(d) CCN1CCC[C@H](CN2CCN(C(=O)Nc3ccc(Cl)c(Cl)c3)CC2)C1
Please rank these compounds by pIC50 in descending order. Please write the labels in the order that was asked for. c, a, d, b
(c: 7.59, a: 6.91, d: 5.93, b: 5.59)
